molecular target: CaMKIδ(h) (Homo sapiens, UniProt Q8IU85); test: Kinase Profiling Assay; assay type: biochemical; conditions: peptide 100 μM
Sequence (Q8IU85 whole entry): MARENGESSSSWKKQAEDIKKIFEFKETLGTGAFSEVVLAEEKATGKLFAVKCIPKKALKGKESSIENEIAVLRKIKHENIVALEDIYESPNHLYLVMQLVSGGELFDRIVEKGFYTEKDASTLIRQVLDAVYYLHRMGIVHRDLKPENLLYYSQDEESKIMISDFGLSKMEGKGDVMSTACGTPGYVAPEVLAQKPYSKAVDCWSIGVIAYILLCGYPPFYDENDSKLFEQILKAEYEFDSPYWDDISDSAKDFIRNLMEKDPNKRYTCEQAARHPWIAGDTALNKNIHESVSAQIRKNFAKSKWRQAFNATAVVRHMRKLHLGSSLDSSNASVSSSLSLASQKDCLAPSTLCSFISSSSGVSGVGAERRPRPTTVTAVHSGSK
REPORTED METRIC: % activity
Could you kindly put the unit after your number?

Illustrative cases are given below, each with its answer.
* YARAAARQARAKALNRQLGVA (Mammal) [MMI-0200] | 47%
* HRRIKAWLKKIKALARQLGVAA (Mammal) [MMI-0500] | 0%
* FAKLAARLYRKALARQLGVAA [MMI-0300] | 10%

Consider now this further sequence.
Data request: Please look at this sequence and report its % activity: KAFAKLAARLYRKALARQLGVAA [MMI-0400]
Data returned: 17%

---

molecular target: Rsk1(h) (Homo sapiens, UniProt Q15418); assay: Kinase Profiling Assay; type: biochemical; conditions: peptide 100 μM
Sequence (Q15418 whole entry): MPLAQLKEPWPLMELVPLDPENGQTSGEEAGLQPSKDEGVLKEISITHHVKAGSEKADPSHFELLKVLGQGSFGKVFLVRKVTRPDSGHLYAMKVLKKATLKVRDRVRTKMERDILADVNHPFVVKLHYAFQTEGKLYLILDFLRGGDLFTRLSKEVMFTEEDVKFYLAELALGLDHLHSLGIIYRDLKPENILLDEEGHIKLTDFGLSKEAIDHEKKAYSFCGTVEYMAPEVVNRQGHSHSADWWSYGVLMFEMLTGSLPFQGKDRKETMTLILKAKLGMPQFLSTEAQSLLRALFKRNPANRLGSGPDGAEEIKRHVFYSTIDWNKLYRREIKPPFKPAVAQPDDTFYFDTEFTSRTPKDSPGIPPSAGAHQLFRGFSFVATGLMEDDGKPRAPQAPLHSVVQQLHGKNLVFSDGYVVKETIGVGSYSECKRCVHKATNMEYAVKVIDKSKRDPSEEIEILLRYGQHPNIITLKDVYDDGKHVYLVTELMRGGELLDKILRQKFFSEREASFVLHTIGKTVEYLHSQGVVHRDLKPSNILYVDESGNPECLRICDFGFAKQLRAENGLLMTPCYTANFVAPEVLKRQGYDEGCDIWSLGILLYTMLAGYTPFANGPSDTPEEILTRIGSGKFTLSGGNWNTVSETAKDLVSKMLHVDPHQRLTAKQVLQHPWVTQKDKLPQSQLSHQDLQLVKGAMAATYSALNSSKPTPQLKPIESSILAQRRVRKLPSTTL
No end group written: not given here.
REPORTED METRIC: % activity (%)
Express the result in % but write the number alone.

// below: answered sequences
* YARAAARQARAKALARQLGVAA [MMI-0100] | 86
* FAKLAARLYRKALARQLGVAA [MMI-0300] | 46
* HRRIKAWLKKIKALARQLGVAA (Mammal) [MMI-0500] | 34

Data request: Supply measured % activity of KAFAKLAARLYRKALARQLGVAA [MMI-0400] in your reply.
Data returned: 54

---

molecular target: Met(D1246H)(h) (Homo sapiens, UniProt P08581, D1228H); construct: purchased Millipore; test: Kinase Profiling Assay; format: biochemical; details: peptide 100 μM
No end group written: not given here.
REPORTED METRIC: % activity (%)
A number alone suffices; assume %.

Take a look at these entries with their results.
- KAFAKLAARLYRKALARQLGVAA [MMI-0400]: 68
- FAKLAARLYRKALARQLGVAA [MMI-0300]: 125
- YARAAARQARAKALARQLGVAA [MMI-0100]: 99
- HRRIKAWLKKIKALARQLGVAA (Mammal) [MMI-0500]: 150

Field: next sequence
Data request: Please list % activity recorded for the sequence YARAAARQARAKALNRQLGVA (Mammal) [MMI-0200]
Data returned: 139

---

Target: ARK5(h) (Homo sapiens)
Sequence (O60285 1-661): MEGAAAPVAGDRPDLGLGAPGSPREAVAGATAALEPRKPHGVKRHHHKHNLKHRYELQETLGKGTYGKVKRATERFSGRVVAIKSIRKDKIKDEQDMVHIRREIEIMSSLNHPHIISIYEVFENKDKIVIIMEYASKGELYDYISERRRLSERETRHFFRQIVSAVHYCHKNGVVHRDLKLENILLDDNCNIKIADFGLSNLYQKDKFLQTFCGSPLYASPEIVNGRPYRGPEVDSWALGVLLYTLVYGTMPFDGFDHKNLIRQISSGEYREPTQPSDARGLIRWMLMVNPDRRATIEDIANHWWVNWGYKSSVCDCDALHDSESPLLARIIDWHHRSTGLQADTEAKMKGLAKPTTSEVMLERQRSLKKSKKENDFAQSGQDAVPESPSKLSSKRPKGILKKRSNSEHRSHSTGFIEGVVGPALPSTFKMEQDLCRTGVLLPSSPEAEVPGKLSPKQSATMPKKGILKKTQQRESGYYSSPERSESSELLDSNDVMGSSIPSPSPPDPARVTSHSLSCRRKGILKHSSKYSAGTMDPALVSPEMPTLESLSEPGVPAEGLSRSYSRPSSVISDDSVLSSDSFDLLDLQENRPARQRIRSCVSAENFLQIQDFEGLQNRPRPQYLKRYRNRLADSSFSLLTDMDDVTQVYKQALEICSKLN
Assay: Kinase Profiling Assay
Type: biochemical
Details: peptide 100 μM
No end group written: not given here.
REPORTED METRIC: % activity (%)
Give a bare numeral; the unit % is implied.

Data request: Please report % activity for the following sequence: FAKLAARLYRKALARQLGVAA [MMI-0300]
Data returned: 78

Data request: Provide % activity value for the following sequence: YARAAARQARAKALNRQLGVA (Mammal) [MMI-0200]
Data returned: 93

Data request: Could you please provide reported % activity for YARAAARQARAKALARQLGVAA [MMI-0100] ? Thanks!
Data returned: 108

Data request: Please look at this sequence and report its % activity: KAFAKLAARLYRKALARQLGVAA [MMI-0400]
Data returned: 69

Data request: Please list % activity recorded for the sequence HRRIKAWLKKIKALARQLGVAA (Mammal) [MMI-0500]
Data returned: 20
